For each entry below, report its mass density value.
# recorded_conditions: 308.15 K; 101 kPa; Liquid; Vibrating tube method
Your answer is read as kg/m3, so omit the unit and give the number.

Tell us which mass density value is on record for OCCN(CCO)CCO [triethanolamine]
1115.26

Specify reported mass density for the molecule shown: CN(CCO)CCO [N-methyldiethanolamine]
1030.43

Answer with the recorded mass density of NCCO [2-aminoethan-1-ol] only.
1004.02

Answer with reported mass density of CC(C)(N)CO [2-amino-2-methylpropan-1-ol]
924.174

----------
# recorded_conditions: 318.15 K; 101 kPa; Liquid; Sing-around technique in a fixed-path interferometer
± gives the expanded uncertainty stated by the source.
Exercise: state measured speed of sound for each of the molecules provided.

// Input: CN(CCO)CCO [N-methyldiethanolamine] . Output its speed of sound only.
1508.8 ± 2.1 m/s

Name the recorded speed of sound of the item NCCO [2-aminoethan-1-ol] in your answer.
1654.2 ± 1.3 m/s

# return recorded speed of sound for entry OCCN(CCO)CCO [triethanolamine]
1578.8 ± 1.3 m/s

Consider the molecule CC(C)(N)CO [2-amino-2-methylpropan-1-ol] and give its recorded speed of sound.
1405.3 ± 5 m/s
